# Tested on: SK-MEL-2 melanoma
# EXPERIMENT SUMMARY: NCI-60 one-dose screen, 48 h (100 = growth as untreated, 0 = no growth, -100 = all killed)
# STUDY CONDITIONS: 10 µM
About 83,000 compounds went through this panel and 20% of them were active in at least one assay; those are over-represented in the sample as a whole.
Reported growth is given for each of the following compounds.
Give just the numeric value; % need not be written.

For the compound Clc1ccc(-c2nnc(-c3cccc4ccccc34)o2)cc1 , what growth is on record?
96.4

Now this one: COc1ccccc1N=Nc1c(O)ccc2cc(S(=O)(=O)O)ccc12
96.4

Now consider COC(=O)C(O)c1ccccc1 (stereo unspecified) and answer again.
103

Proceed to C/C(=C\c1ccc([N+](=O)[O-])cc1)C(=O)O
110

Proceed to Cc1cc(C(C)(C)C)cc(C)c1Br
105

What about Cc1ccc(/C=C2\SC(=S)N(c3ccc(F)cc3)C2=O)o1 ?
96.3

---

# System: NCI-H522 lung
# EXPERIMENT SUMMARY: NCI-60 one-dose screen, 48 h (100 = growth as untreated, 0 = no growth, -100 = all killed)
# STUDY CONDITIONS: 10 µM
The panel holds about 83,000 compounds, 20% with a hit somewhere; the sample as a whole holds those more often.
Reported growth by item:
Answer format: numeric, % implied, no suffix.

{"COMPOUND": "CCc1nc(N)nc(N)c1-c1ccc(Cl)cc1", "growth [%]": 83}

Need growth, item C#CC(C(C)C)N(CCO)CCCC (configuration not stated)
107

Next entry: O=C(O)C(O)c1ccccc1 (configuration not stated)
103

Same lookup for O=C(CCl)N1CCN(C/C=C/c2ccccc2)CC1 , please.
-80.4

Next compound: COC(=O)c1ccc(C(C)C)cc1
79.3

What would you report for COc1cc2nn(-c3ccccc3N)nc2cc1OC ?
100

Moving on to the next compound: CC(C)=NNc1ccc([N+](=O)[O-])cc1[N+](=O)[O-]
82.1

Quick one: NCCC(=O)c1ccc(Cl)cc1
100

Queued: O=C(O)C(Cc1ccccc1)C(=O)O
106

What about this compound? C[C@@H](c1ccccc1)[C@@H](C(=O)O)c1ccccc1
99.9

Try this compound next: S=C(Nc1ccccc1)N1CCCCC1
94.9

---

Overview of reported growth across a group of compounds:
# System: SNB-19 CNS
# EXPERIMENT SUMMARY: NCI-60 one-dose screen, 48 h (100 = growth as untreated, 0 = no growth, -100 = all killed)
# STUDY CONDITIONS: 10 µM
The panel holds about 83,000 compounds, 20% with a hit somewhere; the sample as a whole holds those more often.
Give the quantity in %, number only.

{"COMPOUND": "COc1cc(C(=O)NC(=S)Nc2ccc3ccccc3c2)cc(OC)c1OC", "growth [%]": 107}
{"COMPOUND": "CCCCNC1(C#N)CCN(Cc2ccccc2)CC1", "growth [%]": 91.1}
{"COMPOUND": "Sc1ccc(Nc2c3ccccc3nc3ccccc23)cc1", "growth [%]": 79.8}
{"COMPOUND": "N=c1c(C(=O)OCc2ccccc2)ncc(CCl)n1O", "growth [%]": 95.6}
{"COMPOUND": "CC(=O)OCC(=O)[C@@]1(O)CC[C@H]2[C@@H]3CC[C@@H]4C[C@H](O)CC[C@]4(C)[C@H]3C(=O)C[C@@]21C", "growth [%]": 111}
{"COMPOUND": "CCCOC(=O)C(O)c1ccccc1 (configuration not stated)", "growth [%]": 107}

Param item = CCOC(=O)C1=C(C)NC(=O)NC1c1cccs1 (configuration not stated) ; retrieve measured growth.
113

CC(=O)OCC1CCCO1 (configuration not stated) , same question.
105

// repeat for CC(=O)Nc1ccc(NC(C)=O)c2c1C(=O)c1ccccc1C2=O and report
111

Repeat with O=C(O)/C=C/C(=O)NCc1ccccc1
115

And then CC1C(=O)c2ccccc2CC1C(=O)O (configuration not stated) , what is it?
128

Now consider CCC(C)(C)C1CCC(O)CC1 (configuration not stated) .
100

---

# Tested on: LOX IMVI melanoma
# EXPERIMENT SUMMARY: NCI-60 one-dose screen, 48 h
# STUDY CONDITIONS: 10 µM
# Method: Growth inhibition of the LOX IMVI human tumor cell line is measured as a screen for anti-cancer activity. Cells are grown in 96 well plates and exposed to the test compound for 48 hours. Compounds are tested at a single concentration, which is 10^-5 M for most compounds. The reported endpoint is percent growth (GI% or GIPRCNT), where numbers from 0 - 100% represent growth inhibition, and numbers from -100% - 0 represent cell death. For example, a value of 40 represents 60% growth inhibition. […]
About 83,000 compounds went through this panel and 20% of them were active in at least one assay; those are over-represented in the sample as a whole. The source made the active and inactive calls. Rule for the calls: active = growth percent below 10; inactive = the rest.
Give your call using only these classes: active, inactive

Previously resolved entries follow.
{"COMPOUND": "C/C=C/CC(C)C(O)C1C(=O)NC(CC)C(=O)N(C)CC(=O)N(C)C(CC(C)C)C(=O)NC(C(C)C)C(=O)N(C)C(CC(C)C)C(=O)NC(C)C(=O)NC(C)C(=O)N(C)C(CC(C)C)C(=O)N(C)C(CC(C)C)C(=O)N(C)C(C(C)C)C(=O)N1C (stereo not given)", "CLASS LABEL": "active"}
{"COMPOUND": "CC(=O)Cc1ccc(-c2ccccc2)cc1", "CLASS LABEL": "inactive"}
{"COMPOUND": "Cc1ccc(C(=O)c2ccccc2)c(C)c1", "CLASS LABEL": "inactive"}

Field: outcome | Entry: CN(C)c1ccc2oc(=O)c3ccccc3c2c1
inactive

Subsequent entry: Oc1ccc(Cc2ccccc2)c2cccnc12
active

Then this compound: O=C(CS)Nc1ccc2ccccc2c1
inactive

What do you get for COc1cc(C2c3cc4c(cc3C3OC(=O)C2C3CO)OCO4)cc(OC)c1OC (stereo not given) ?
active

How about this compound: COc1cccc(Sc2ccc([N+](=O)[O-])c3no[n+]([O-])c23)c1
inactive

Then CC1C(=O)c2ccccc2CC1C(=O)O (stereo not given) ?
inactive

Moving on to the next compound: COc1cc2c(cc1O)CC[C@@H]1C2CC[C@@]2(C)C1CC[C@@H]2O (stereo not given in full)
inactive

---

# Test system: SF-295 CNS
# EXPERIMENT SUMMARY: NCI-60 one-dose screen, 48 h (100 = growth as untreated, 0 = no growth, -100 = all killed)
# STUDY CONDITIONS: 10 µM
About 83,000 compounds went through this panel and 20% of them were active in at least one assay; those are over-represented in the sample as a whole.
Entry flag: fulfilled if growth reaches 90%; not fulfilled if it does not.

Would you please look over these solved cases?
{"MOLECULE": "CC(=O)NC(N)=S", "CLASS LABEL": "fulfilled"}
{"MOLECULE": "O=C(O)CCCc1ccccc1", "CLASS LABEL": "fulfilled"}
{"MOLECULE": "CN(C)c1nc2c([nH]1)c(=O)n(C)c(=O)n2C", "CLASS LABEL": "fulfilled"}
{"MOLECULE": "Nc1ccc(N)c([N+](=O)[O-])c1", "CLASS LABEL": "fulfilled"}
{"MOLECULE": "O=C(N/N=C\\c1cc(Br)cc(Br)c1O)N/N=C/c1cc(Br)cc(Br)c1O", "CLASS LABEL": "not fulfilled"}
{"MOLECULE": "OCCN(CCO)C(=S)S", "CLASS LABEL": "fulfilled"}
{"MOLECULE": "COc1ccccc1C1OC2=Nc3cc(C)c(C)cc3NC2C1=O (stereo not given)", "CLASS LABEL": "not fulfilled"}
{"MOLECULE": "C/C(O)=C(\\C=N\\C(N)=S)C(=O)Nc1ccccc1", "CLASS LABEL": "fulfilled"}
{"MOLECULE": "COc1cc2c(cc1OC)[C@H](C(=O)O)[C@@H](c1ccc(OC(C)C)c(OC)c1)N(C)C2=O", "CLASS LABEL": "fulfilled"}
{"MOLECULE": "COC(=O)c1[nH]c(=O)c(C#N)c(C(=O)OC)c1C(=O)c1ccccc1", "CLASS LABEL": "fulfilled"}

Does O=S(=O)(O)CC(O)CN1CCN(CCO)CC1 (stereo not given) have a reported growth of at least 90%?
fulfilled

Follow-up entry: O=C(Nc1ccccc1)OCCc1ccccc1
not fulfilled

Check CC(=O)c1ccc(N=C(C#N)C2=C(O)c3ccccc3C2=O)cc1 too.
fulfilled

Now consider CC(=O)OCC1=CC2OC(=O)C3=COC(OC4OC(CO)C(O)C(O)C4O)C1C32 (stereo not given) .
fulfilled

Follow-up item: CC(=O)/C(Cc1ccccc1)=N/O
fulfilled

What about this molecule? COc1nc(N)nc2c1ncn2C1OC(CO)CC1O (stereo not given)
fulfilled

Ok, now CC1=CC(C)(C)NC(=S)N1c1ccc(S(=O)(=O)O)c2cccc(S(=O)(=O)O)c12
fulfilled
